So I've got a bunch of compounds here, and I need their residual activity values.
target: MAPKAPK3 (human); assay: radiometric filter-binding kinase assay, Kinase HotSpot; settings: compound 0.5 µM; ATP 10 µM
Answers are plain numbers, in %.

Some entries whose results are on file:
Form: item COc1cc2ncnc(Nc3ccc(OCc4ccccc4)cc3)c2cc1OC ; test system MAPKAPK3 (human); residual activity: 102

Form: item CC(C)(C)c1cc(C=C(C#N)C#N)cc(Br)c1O ; test system MAPKAPK3 (human); residual activity: 103

Form: item O=C1c2ccccc2-c2nc3nnnn3nc21 ; test system MAPKAPK3 (human); residual activity: 76

// for each compound below, give its residual activity
1. COc1ccc(S(=O)(=O)N(CCO)c2ccccc2CN(C)C/C=C/c2ccc(Cl)cc2)cc1
2. O=C(c1cc2cc(O)ccc2[nH]1)c1cc2cc(O)ccc2[nH]1
3. COc1cc(Nc2c(C#N)cnc3cc(OCCCN4CCN(C)CC4)c(OC)cc23)c(Cl)cc1Cl
4. COc1ccc2c(c1)c(C1=C(c3c[nH]c4ccccc34)C(=O)NC1=O)cn2CCCN(C)C
5. CO[C@@H]1[C@H](N(C)C(=O)c2ccccc2)C[C@H]2O[C@]1(C)n1c3ccccc3c3c4c(c5c6ccccc6n2c5c31)C(=O)NC4

[out]
101
91.2
98.2
92.3
91.5

---

target: UniProt:Q9BYT3; experiment: radiometric filter-binding kinase assay, Kinase HotSpot; conditions: compound 0.5 µM; ATP 10 µM
Sequence (Q9BYT3 whole entry, looked up): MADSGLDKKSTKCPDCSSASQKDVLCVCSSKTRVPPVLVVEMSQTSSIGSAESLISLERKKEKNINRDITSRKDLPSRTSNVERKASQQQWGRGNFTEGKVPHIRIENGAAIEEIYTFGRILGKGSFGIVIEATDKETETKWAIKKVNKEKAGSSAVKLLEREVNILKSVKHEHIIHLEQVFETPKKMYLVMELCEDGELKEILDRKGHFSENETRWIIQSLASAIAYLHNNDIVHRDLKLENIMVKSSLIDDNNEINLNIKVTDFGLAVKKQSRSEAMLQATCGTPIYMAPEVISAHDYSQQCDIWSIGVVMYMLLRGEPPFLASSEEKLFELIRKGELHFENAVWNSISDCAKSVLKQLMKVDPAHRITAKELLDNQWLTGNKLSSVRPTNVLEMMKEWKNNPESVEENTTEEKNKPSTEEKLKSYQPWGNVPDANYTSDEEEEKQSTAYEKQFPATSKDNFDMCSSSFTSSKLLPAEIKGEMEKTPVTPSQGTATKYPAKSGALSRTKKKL
Measurement type: residual activity (%)
Give bare numbers, in %.

Some entries whose results are on file:
Notebook: NCCNc1ncc(C(N)=O)c(Nc2cccc(C(F)(F)F)c2)n1 , residual activity read as 81.9

Notebook: Cc1cn(-c2cc(NC(=O)c3ccc(C)c(Nc4nccc(-c5cccnc5)n4)c3)cc(C(F)(F)F)c2)cn1 , residual activity read as 87.1

Notebook: O=C1Nc2ccc(Br)cc2/C1=C\c1cc2c([nH]1)CCCC2 , residual activity read as 77.3

Notebook: O=C1c2ccccc2-c2n[nH]c3cccc1c23 , residual activity read as 47.7

Notebook: CCCCc1c(-c2ccc(OC)cc2)[nH]c2nccnc12 , residual activity read as 84.6

// for each molecule below, give its residual activity
1. O=C1c2ccccc2-c2nc3nnnn3nc21
2. Cn1c2ccccc2c2c3c(c4c5ccccc5n(CCC#N)c4c21)CNC3=O

[out]
[107, 26.5]

// for each molecule below, give its residual activity
1. CO[C@@H]1[C@H](N(C)C(=O)c2ccccc2)C[C@H]2O[C@]1(C)n1c3ccccc3c3c4c(c5c6ccccc6n2c5c31)C(=O)NC4
2. COc1cc(Nc2c(C#N)cnc3cc(OCCCN4CCN(C)CC4)c(OC)cc23)c(Cl)cc1Cl
3. Ic1cccc(CSc2nnc(-c3ccncc3)o2)c1

[out]
1: 46.4; 2: 63.5; 3: 111

---

So I've got a bunch of molecules here, and I need their residual activity values.
biological target: CAMK2B (human) (UniProt Q13554); assay: radiometric filter-binding kinase assay, Kinase HotSpot; conditions: compound 0.5 µM; ATP 10 µM
Sequence (Q13554 whole entry, looked up): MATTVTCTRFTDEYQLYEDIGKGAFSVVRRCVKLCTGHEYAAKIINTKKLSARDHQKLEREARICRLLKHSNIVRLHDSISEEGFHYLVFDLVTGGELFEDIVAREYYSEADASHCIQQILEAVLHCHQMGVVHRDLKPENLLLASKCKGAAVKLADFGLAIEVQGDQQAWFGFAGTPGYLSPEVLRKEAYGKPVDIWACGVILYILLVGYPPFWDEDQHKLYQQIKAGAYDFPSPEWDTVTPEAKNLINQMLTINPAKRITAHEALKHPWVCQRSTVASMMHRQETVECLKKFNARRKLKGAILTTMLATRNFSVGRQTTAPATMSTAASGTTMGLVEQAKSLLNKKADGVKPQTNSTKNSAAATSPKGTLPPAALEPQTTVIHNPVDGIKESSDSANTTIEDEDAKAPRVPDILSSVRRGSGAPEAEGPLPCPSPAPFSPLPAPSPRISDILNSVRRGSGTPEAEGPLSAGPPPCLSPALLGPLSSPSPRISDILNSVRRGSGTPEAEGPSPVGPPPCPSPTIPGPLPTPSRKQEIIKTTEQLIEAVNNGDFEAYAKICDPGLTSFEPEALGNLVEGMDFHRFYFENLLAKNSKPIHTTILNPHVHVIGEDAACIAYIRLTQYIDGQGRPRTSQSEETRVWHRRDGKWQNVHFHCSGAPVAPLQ
One number for each entry, in %.

Notebook: N#Cc1c[nH]c2c[nH]/c(=N\Cc3cccnc3)cc2/c1=N\c1ccc(F)c(Cl)c1 , residual activity read as 97.4

// for each molecule below, give its residual activity
1. COc1cc2ncnc(Nc3ccc(Oc4ccccc4)cc3)c2cc1OC
2. COc1cc(Nc2c(C#N)cnc3cc(OCCCN4CCN(C)CC4)c(OC)cc23)c(Cl)cc1Cl
3. CN(C)CCCn1cc(C2=C(c3c[nH]c4ccccc34)C(=O)NC2=O)c2ccccc21
4. Ic1cccc(CSc2nnc(-c3ccncc3)o2)c1
5. CC(C)(C)c1cc(C=C(C#N)C#N)cc(Br)c1O
6. O=C1NC(=O)c2c1c1c3ccccc3[nH]c1n1cncc21
7. COc1ccc(Cl)cc1NC(=O)Nc1cc(C)nc2ccccc12
8. COc1cc2ncnc(Nc3ccc(OCc4ccccc4)cc3)c2cc1OC

[out]
98.2
86.2
74.5
95.4
99.3
58.2
103
105

// for each molecule below, give its residual activity
1. COc1ccc(C(=O)Nc2sc3c(c2C(N)=O)CCCC3)cc1OC
2. Cn1c2ccccc2c2c3c(c4c5ccccc5n(CCC#N)c4c21)CNC3=O

[out]
1: 99.9; 2: 51.3

---

molecular target: STK3 (human) (UniProt Q13188); assay: radiometric filter-binding kinase assay, Kinase HotSpot; conditions: compound 0.5 µM; ATP 10 µM
Sequence (Q13188 whole entry, looked up): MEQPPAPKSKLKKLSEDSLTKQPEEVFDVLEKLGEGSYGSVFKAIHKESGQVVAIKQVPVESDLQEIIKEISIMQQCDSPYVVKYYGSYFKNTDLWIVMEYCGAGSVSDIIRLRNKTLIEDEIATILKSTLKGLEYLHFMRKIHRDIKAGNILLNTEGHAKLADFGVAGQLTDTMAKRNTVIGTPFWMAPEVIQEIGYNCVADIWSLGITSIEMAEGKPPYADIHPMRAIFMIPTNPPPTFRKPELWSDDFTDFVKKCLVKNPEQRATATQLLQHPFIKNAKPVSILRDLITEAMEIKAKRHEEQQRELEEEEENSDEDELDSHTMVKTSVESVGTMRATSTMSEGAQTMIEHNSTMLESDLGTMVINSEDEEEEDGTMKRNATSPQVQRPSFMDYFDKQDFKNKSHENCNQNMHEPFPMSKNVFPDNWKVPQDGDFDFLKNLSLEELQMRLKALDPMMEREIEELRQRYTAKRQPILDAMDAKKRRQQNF
Measurement type: residual activity
Express the reported value numerically, then name its unit.

Form: item COc1ccc2c(c1)c(C1=C(c3c[nH]c4ccccc34)C(=O)NC1=O)cn2CCCN(C)C ; test system STK3 (human) (UniProt Q13188); residual activity: 72.2%

Form: item Cc1cncc2cccc(S(=O)(=O)N3CCCN(C(=O)CN)C[C@H]3C)c12 ; test system STK3 (human) (UniProt Q13188); residual activity: 104%

Form: item COc1ccc(Cl)cc1NC(=O)Nc1cc(C)nc2ccccc12 ; test system STK3 (human) (UniProt Q13188); residual activity: 98.9%

Form: item Fc1ccc(-c2nc3n(c2-c2ccncc2)CCS3)cc1 ; test system STK3 (human) (UniProt Q13188); residual activity: 111%

// for each molecule below, give its residual activity
1. COc1ccc(C(=O)Nc2sc3c(c2C(N)=O)CCCC3)cc1OC
2. NC(=O)c1cccc(-c2cc(Nc3ccc(OC(F)(F)F)cc3)ncn2)c1
3. O=C1C(Cl)=C(N2C(=O)CCC2=O)C(=O)c2ccccc21

[out]
1. 99.6%
2. 93.6%
3. 98.2%

---

target: MAPK12 (human) (UniProt P53778); assay: radiometric filter-binding kinase assay, Kinase HotSpot; conditions: compound 0.5 µM; ATP 10 µM
Sequence (P53778 whole entry, looked up): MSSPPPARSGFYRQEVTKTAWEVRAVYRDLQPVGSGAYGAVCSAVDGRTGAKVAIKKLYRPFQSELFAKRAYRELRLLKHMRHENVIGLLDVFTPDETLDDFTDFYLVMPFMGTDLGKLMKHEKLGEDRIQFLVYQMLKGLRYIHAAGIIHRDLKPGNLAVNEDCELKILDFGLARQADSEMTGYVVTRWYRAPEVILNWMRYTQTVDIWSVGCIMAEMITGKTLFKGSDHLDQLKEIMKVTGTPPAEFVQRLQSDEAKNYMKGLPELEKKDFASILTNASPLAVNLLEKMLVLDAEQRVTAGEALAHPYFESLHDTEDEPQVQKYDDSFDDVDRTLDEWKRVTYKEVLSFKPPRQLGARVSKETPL
Measurement type: residual activity (%)
Answers are plain numbers, in %.

Notebook: O=C1C(Cl)=C(N2C(=O)CCC2=O)C(=O)c2ccccc21 , residual activity read as 100

// for each molecule below, give its residual activity
1. Ic1cccc(CSc2nnc(-c3ccncc3)o2)c1
2. COc1ccc(C(=O)Nc2sc3c(c2C(N)=O)CCCC3)cc1OC
3. O=C1c2ccccc2-c2nc3nnnn3nc21
4. COc1ccc2c(c1)c(C1=C(c3c[nH]c4ccccc34)C(=O)NC1=O)cn2CCCN(C)C
5. Cc1cncc2cccc(S(=O)(=O)N3CCCN(C(=O)CN)C[C@H]3C)c12

[out]
[93, 96.5, 92.5, 84.8, 107]

---

molecular target: UniProtKB O14965; test: radiometric filter-binding kinase assay, Kinase HotSpot; conditions: compound 0.5 µM; ATP 10 µM
Sequence (O14965 whole entry, looked up): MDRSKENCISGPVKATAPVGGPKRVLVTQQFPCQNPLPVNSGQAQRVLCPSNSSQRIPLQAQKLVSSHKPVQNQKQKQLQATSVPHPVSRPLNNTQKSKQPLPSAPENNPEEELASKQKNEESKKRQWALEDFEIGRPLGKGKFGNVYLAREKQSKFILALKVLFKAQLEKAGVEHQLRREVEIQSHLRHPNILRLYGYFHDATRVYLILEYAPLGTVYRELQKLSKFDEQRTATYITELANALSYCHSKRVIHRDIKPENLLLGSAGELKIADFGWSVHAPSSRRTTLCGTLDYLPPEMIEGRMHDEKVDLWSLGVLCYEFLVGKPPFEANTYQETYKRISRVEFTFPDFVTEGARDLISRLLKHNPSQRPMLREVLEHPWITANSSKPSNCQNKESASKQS
Measurement type: residual activity
Express the reported value numerically, then name its unit.

Some entries whose results are on file:
Notebook: O=C(c1cc2cc(O)ccc2[nH]1)c1cc2cc(O)ccc2[nH]1 , residual activity read as 71.6%

Notebook: CN(C)c1ccc(/C=C2\C(=O)Nc3ccccc32)cc1 , residual activity read as 104%

Notebook: Fc1ccc(-c2nc3n(c2-c2ccncc2)CCS3)cc1 , residual activity read as 92.1%

Notebook: COc1cc2ncnc(Nc3ccc(Oc4ccccc4)cc3)c2cc1OC , residual activity read as 79.2%

Notebook: CCCCc1c(-c2ccc(OC)cc2)[nH]c2nccnc12 , residual activity read as 25.5%

Please find the next compound below.
Notebook: O=C1NC(=O)c2c1c1c3ccccc3[nH]c1n1cncc21 , residual activity read as 34.8%

---

target: UniProt:P07332; test: radiometric filter-binding kinase assay, Kinase HotSpot; details: compound 0.5 µM; ATP 10 µM
Sequence (P07332 whole entry, looked up): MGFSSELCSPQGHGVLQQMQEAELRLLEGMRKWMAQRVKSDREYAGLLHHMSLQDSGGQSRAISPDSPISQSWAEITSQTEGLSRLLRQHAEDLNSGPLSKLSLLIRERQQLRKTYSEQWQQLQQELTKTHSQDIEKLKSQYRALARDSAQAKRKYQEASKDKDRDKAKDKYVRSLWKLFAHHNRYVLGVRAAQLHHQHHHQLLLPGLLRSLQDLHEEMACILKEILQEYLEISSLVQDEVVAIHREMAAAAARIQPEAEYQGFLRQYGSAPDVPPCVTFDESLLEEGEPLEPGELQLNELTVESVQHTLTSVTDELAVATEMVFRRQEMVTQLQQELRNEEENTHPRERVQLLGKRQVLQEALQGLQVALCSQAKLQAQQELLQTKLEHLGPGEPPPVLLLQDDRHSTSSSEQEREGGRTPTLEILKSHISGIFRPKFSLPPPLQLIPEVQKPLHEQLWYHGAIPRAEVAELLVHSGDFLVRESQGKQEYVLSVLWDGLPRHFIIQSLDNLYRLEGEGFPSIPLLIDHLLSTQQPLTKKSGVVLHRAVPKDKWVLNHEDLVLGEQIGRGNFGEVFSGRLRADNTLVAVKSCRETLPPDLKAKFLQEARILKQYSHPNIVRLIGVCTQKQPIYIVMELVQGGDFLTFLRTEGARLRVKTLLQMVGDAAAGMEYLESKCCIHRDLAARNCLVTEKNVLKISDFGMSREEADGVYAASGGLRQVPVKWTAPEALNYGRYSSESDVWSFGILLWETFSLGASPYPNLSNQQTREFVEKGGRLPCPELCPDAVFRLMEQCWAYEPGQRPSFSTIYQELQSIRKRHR
Measurement type: residual activity (%)
Give bare numbers, in %.

Notebook: O=C(c1cc2cc(O)ccc2[nH]1)c1cc2cc(O)ccc2[nH]1 , residual activity read as 95.3

Notebook: c1ccc2c(-c3ccncc3)c[nH]c2c1 , residual activity read as 105

Notebook: COc1cc2ncnc(Nc3ccc(OCc4ccccc4)cc3)c2cc1OC , residual activity read as 97

Notebook: O=C1NC(=O)c2c1c1c3ccccc3[nH]c1n1cncc21 , residual activity read as 117

Notebook: COc1cc2ncnc(Nc3ccc(Oc4ccccc4)cc3)c2cc1OC , residual activity read as 99.6

Notebook: CC(C)(C)c1cc(C=C(C#N)C#N)cc(Br)c1O , residual activity read as 105

Notebook: CN(C)S(=O)(=O)c1ccc2c(c1)/C(=C/c1cc3c([nH]1)CCCC3)C(=O)N2 , residual activity read as 76.9

Notebook: CN(C)CCCn1cc(C2=C(c3c[nH]c4ccccc34)C(=O)NC2=O)c2ccccc21 , residual activity read as 90.9

Notebook: Fc1ccc(-c2nc3n(c2-c2ccncc2)CCS3)cc1 , residual activity read as 104

Notebook: CN(C)c1ccc(/C=C2\C(=O)Nc3ccccc32)cc1 , residual activity read as 97.8

// for each molecule below, give its residual activity
1. Ic1cccc(CSc2nnc(-c3ccncc3)o2)c1
2. N#C/C(=C\c1ccc(O)c(O)c1)C(=O)NCc1ccccc1
3. Cn1c2ccccc2c2c3c(c4c5ccccc5n(CCC#N)c4c21)CNC3=O
4. C[C@@H]1CCN(C(=O)CC#N)C[C@@H]1N(C)c1ncnc2[nH]ccc12
5. CS(=O)(=O)CCNCc1ccc(-c2ccc3ncnc(Nc4ccc(OCc5cccc(F)c5)c(Cl)c4)c3c2)o1
6. COc1ccc(Cl)cc1NC(=O)Nc1cc(C)nc2ccccc12
7. CCCCc1c(-c2ccc(OC)cc2)[nH]c2nccnc12

[out]
98
101
78.4
104
104
101
66

Values compiled from the kinase profiling compilation of Christmann-Franck et al. (2016).
